System: Jurkat
MEASUREMENT NOTES: WST-1 cytotoxicity assay
Type: cell-based
CONDITION INFO: Homo sapiens, 72 hour treatment
ASSAY METRIC: pIC50
On this scale, pIC50 is minus log10 of a concentration expressed in M (mol/L).

[
  {
    "COMPOUND": "CCCCCCCC/C=C/CCCCCCCC(=O)OC[C@H]1O[C@@H](n2cnc(N)nc2=O)[C@H](O)[C@@H]1O [CP, 5-azacytidine 5′-elaidate]",
    "pIC50": 6.08
  }
]

Moving on to the next compound.
pIC50 reading for Nc1ncn([C@@H]2O[C@H](CO)[C@@H](O)[C@H]2O)c(=O)n1 [5-AzaC, 5-azacytidine, reference compound] : 5.32

Recorded values, source patent US8158605B2.
